Bilirubin listing for selected substances.
testSummary: Tolerability in CD1 mice: liver function, ALT, AST, bilirubin, albumin (Example 33)
protocolConditions: plasma, 50 mg/kg s.c. twice a week, 4 weeks
Quick reminder: number only, in mg/dL, skip the unit.

{"substance": "ISIS 416850: MOE gapmer, nucleobases 1275 to 1318 of SEQ ID NO: 1 (Table 8) (antisense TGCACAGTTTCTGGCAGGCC; MOE gapmer, wing and gap sizes not given here)", "Bilirubin / mg/dL": 0.23}

Continue with the substance presented below.
Field Bilirubin (entry ISIS 417002: MOE gapmer, nucleobases 1275 to 1318 of SEQ ID NO: 1 (Table 8) (antisense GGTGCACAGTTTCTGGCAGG; MOE gapmer, wing and gap sizes not given here) ) reads 0.25

====

protocolConditions: rat, in vivo, sc, 50 mg/kg
e = 2'-O-(2-methoxyethyl) (MOE); d = 2'-deoxy (DNA)
Creatinine listing for selected substances.
Quick reminder: number only, in mg/dL, skip the unit.

{"substance": "ISIS 445513: 5-8-5 or 6-8-6 MOE microwalk gapmer (Table 44) (antisense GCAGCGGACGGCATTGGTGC; sugars from the 5' end e6 d8 e6, backbone and methylation of C not given here)", "assayEndpoint": "Creatinine", "recordedValue": 0.4}
{"substance": "ISIS 445498: 5-8-5 or 6-8-6 MOE microwalk gapmer (Table 44) (antisense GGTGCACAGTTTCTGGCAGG; sugars from the 5' end e6 d8 e6, backbone and methylation of C not given here)", "assayEndpoint": "Creatinine", "recordedValue": 0.5}
{"substance": "ISIS 445504: 5-8-5 or 6-8-6 MOE microwalk gapmer (Table 44) (antisense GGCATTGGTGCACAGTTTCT; sugars from the 5' end e6 d8 e6, backbone and methylation of C not given here)", "assayEndpoint": "Creatinine", "recordedValue": 0.4}

Field Creatinine (entry ISIS 445505: 5-8-5 or 6-8-6 MOE microwalk gapmer (Table 44) (antisense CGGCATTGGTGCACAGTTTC; sugars from the 5' end e6 d8 e6, backbone and methylation of C not given here) ) reads 0.4

Field Creatinine (entry ISIS 445530: 5-8-5 or 6-8-6 MOE microwalk gapmer (Table 44) (antisense GCATTGGTGCACAGTTTC; sugars from the 5' end e5 d8 e5, backbone and methylation of C not given here) ) reads 0.4

Field Creatinine (entry ISIS 445509: 5-8-5 or 6-8-6 MOE microwalk gapmer (Table 44) (antisense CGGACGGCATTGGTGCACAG; sugars from the 5' end e6 d8 e6, backbone and methylation of C not given here) ) reads 0.5

====

Tested on: Factor 11 activity
testSummary: Factor 11 protein activity, F11 assay based on clotting time (Example 45)
Format: in vivo, cynomolgus monkeys
protocolConditions: day 43; escalating dose regimen
assayEndpoint: percent inhibition of Factor 11 activity, relative to PBS control (%)
Quick reminder: number only, in %, skip the unit.

Use these answered entries as a reference point.
{"substance": "ISIS 416858: MOE gapmer, nucleobases 1275 to 1318 of SEQ ID NO: 1 (Table 8) (antisense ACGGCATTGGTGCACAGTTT; MOE gapmer, wing and gap sizes not given here)", "experimentalSystem": "Factor 11 activity", "recordedValue": 39}
{"substance": "ISIS 416850: MOE gapmer, nucleobases 1275 to 1318 of SEQ ID NO: 1 (Table 8) (antisense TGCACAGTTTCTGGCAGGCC; MOE gapmer, wing and gap sizes not given here)", "experimentalSystem": "Factor 11 activity", "recordedValue": 23}

Continue with the substance presented below.
Result for ISIS 416864: MOE gapmer, nucleobases 1275 to 1318 of SEQ ID NO: 1 (Table 8) (antisense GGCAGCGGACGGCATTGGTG; MOE gapmer, wing and gap sizes not given here) , tested on Factor 11 activity, percent inhibition of Factor 11 activity, relative to PBS control: 9
